The values you see were collected from patent US20240269106A1.

Assay: Pharmacokinetic study, oral, serum LC-MS
Type: in vivo, SD rats
Conditions: male, Sprague-Dawley (SD), rat, serum; free drug coarse suspension, 25 mg/kg oral
measured-attribute: AUC(0-t)
In your response, the unit should come after the numeric value.

## Task Param item = COc1ccc(C(=O)C2=C3OC(C)(C)[C@@H](CC=C(C)C)C[C@@]34C[C@@H](CC=C(C)C)C(C)(C)[C@@](CC=C(C)C)(C2=O)C4=O)cc1OC [Compound X] ; retrieve measured AUC(0-t).
## Result 6.56 ng·h/mL

---

Assay: Pharmacokinetic study, oral, serum LC-MS
Type: in vivo, SD rats
Settings: male, Sprague-Dawley (SD), rat, serum; free drug coarse suspension, 200 mg/kg oral; read-out: AUC 0-inf_obs
measured-attribute: AUC(0-inf) (ng·h/mL)
Respond with the bare value in ng·h/mL.

## Task Look up AUC(0-inf) for this compound: COc1ccc(C(=O)C2=C3OC(C)(C)[C@@H](CC=C(C)C)C[C@@]34C[C@@H](CC=C(C)C)C(C)(C)[C@@](CC=C(C)C)(C2=O)C4=O)cc1OC
## Result 20.6

---

Assay: Pharmacokinetic study, oral, serum LC-MS
Format: in vivo, SD rats
Conditions: male, SD, rat, serum, oral; free compound X, 200 mg/kg dose
measured-attribute: AUC

## Task Bench note: what AUC did COc1ccc(C(=O)C2=C3OC(C)(C)[C@@H](CC=C(C)C)C[C@@]34C[C@@H](CC=C(C)C)C(C)(C)[C@@](CC=C(C)C)(C2=O)C4=O)cc1OC [Compound X] show?
## Result ~20 ng·h/mL

---

Assay: Pharmacokinetic study, oral, serum LC-MS
Format: in vivo, SD rats
Conditions: male, Sprague-Dawley (SD), rat, serum; free drug coarse suspension, 200 mg/kg oral; read-out: t½ (converted)
measured-attribute: half-life (h)
Your answer should be a plain number; it is taken to be in h.

## Task Requested read-out: half-life. Entry: COc1ccc(C(=O)C2=C3OC(C)(C)[C@@H](CC=C(C)C)C[C@@]34C[C@@H](CC=C(C)C)C(C)(C)[C@@](CC=C(C)C)(C2=O)C4=O)cc1OC
## Result 13.4

---

Assay: Pharmacokinetic study, oral, serum LC-MS
Assay type: in vivo, SD rats
Details: male, Sprague-Dawley (SD), rat, serum; free drug coarse suspension, 100 mg/kg oral
measured-attribute: Tmax (min)
Express it in min; write the number only.

## Task # query: Tmax of entry COc1ccc(C(=O)C2=C3OC(C)(C)[C@@H](CC=C(C)C)C[C@@]34C[C@@H](CC=C(C)C)C(C)(C)[C@@](CC=C(C)C)(C2=O)C4=O)cc1OC
## Result 40

---

Assay: Pharmacokinetic study, oral, serum LC-MS
Format: in vivo, SD rats
Conditions: male, Sprague-Dawley (SD), rat, serum; free drug coarse suspension, 100 mg/kg oral; read-out: AUC 0-inf_obs
measured-attribute: AUC(0-inf)
Mention the unit after the number when you answer.

## Task Query (compound): COc1ccc(C(=O)C2=C3OC(C)(C)[C@@H](CC=C(C)C)C[C@@]34C[C@@H](CC=C(C)C)C(C)(C)[C@@](CC=C(C)C)(C2=O)C4=O)cc1OC ; field requested: AUC(0-inf)
## Result 5.74 ng·h/mL

---

Test: Pharmacokinetic study, oral, serum LC-MS
Assay type: in vivo, SD rats
Settings: male, Sprague-Dawley (SD), rat, serum; free drug coarse suspension, 100 mg/kg oral
measured-attribute: AUC(0-t) (ng·h/mL)
Give the number; ng·h/mL is assumed, so skip it.

## Task // returns reported AUC(0-t) for input COc1ccc(C(=O)C2=C3OC(C)(C)[C@@H](CC=C(C)C)C[C@@]34C[C@@H](CC=C(C)C)C(C)(C)[C@@](CC=C(C)C)(C2=O)C4=O)cc1OC [Compound X]
## Result 5.29

---

Test: Pharmacokinetic study, oral, serum LC-MS
Format: in vivo, SD rats
Conditions: male, Sprague-Dawley (SD), rat, serum; free drug coarse suspension, 200 mg/kg oral
measured-attribute: AUC(0-t) (ng·h/mL)
Answer in ng·h/mL, number only, no unit symbol.

## Task Reported AUC(0-t), compound COc1ccc(C(=O)C2=C3OC(C)(C)[C@@H](CC=C(C)C)C[C@@]34C[C@@H](CC=C(C)C)C(C)(C)[C@@](CC=C(C)C)(C2=O)C4=O)cc1OC [Compound X] : ____
## Result 19.1

---

Assay: Pharmacokinetic study, oral, serum LC-MS
Type: in vivo, SD rats
Conditions: male, Sprague-Dawley (SD), rat, serum; free drug coarse suspension, 100 mg/kg oral; read-out: MRT 0-inf_obs
measured-attribute: MRT inf (h)
The answer is to be given in h; state only the numeric part.

## Task Look up MRT inf for this molecule: COc1ccc(C(=O)C2=C3OC(C)(C)[C@@H](CC=C(C)C)C[C@@]34C[C@@H](CC=C(C)C)C(C)(C)[C@@](CC=C(C)C)(C2=O)C4=O)cc1OC [Compound X]
## Result 21

---

Assay: Pharmacokinetic study, oral, serum LC-MS
Type: in vivo, SD rats
Conditions: male, Sprague-Dawley (SD), rat, serum; free drug coarse suspension, 25 mg/kg oral
measured-attribute: Tmax (h)
Expressed in h, but write only the number.

## Task Need Tmax, item COc1ccc(C(=O)C2=C3OC(C)(C)[C@@H](CC=C(C)C)C[C@@]34C[C@@H](CC=C(C)C)C(C)(C)[C@@](CC=C(C)C)(C2=O)C4=O)cc1OC [Compound X]
## Result 4.67

---

Test: Pharmacokinetic study, oral, serum LC-MS
Type: in vivo, SD rats
Settings: male, Sprague-Dawley (SD), rat, serum; free drug coarse suspension, 200 mg/kg oral
measured-attribute: Tmax (h)
A number alone suffices; assume h.

## Task For the compound shown here, COc1ccc(C(=O)C2=C3OC(C)(C)[C@@H](CC=C(C)C)C[C@@]34C[C@@H](CC=C(C)C)C(C)(C)[C@@](CC=C(C)C)(C2=O)C4=O)cc1OC , give the reported Tmax.
## Result 2.92

---

Assay: Pharmacokinetic study, oral, serum LC-MS
Format: in vivo, SD rats
Conditions: male, Sprague-Dawley (SD), rat, serum; free drug coarse suspension, 50 mg/kg oral
measured-attribute: Tmax (min)
Response body: numeric value in min, unit text excluded.

## Task Fill in: Tmax of COc1ccc(C(=O)C2=C3OC(C)(C)[C@@H](CC=C(C)C)C[C@@]34C[C@@H](CC=C(C)C)C(C)(C)[C@@](CC=C(C)C)(C2=O)C4=O)cc1OC is ___
## Result 20

---

Test: Pharmacokinetic study, oral, serum LC-MS
Format: in vivo, SD rats
Conditions: male, Sprague-Dawley (SD), rat, serum; free drug coarse suspension, 25 mg/kg oral; read-out: t½ (converted)
measured-attribute: half-life (h)
Answer with a number only, understood to be in h.

## Task What does the record list as half-life for COc1ccc(C(=O)C2=C3OC(C)(C)[C@@H](CC=C(C)C)C[C@@]34C[C@@H](CC=C(C)C)C(C)(C)[C@@](CC=C(C)C)(C2=O)C4=O)cc1OC [Compound X] ?
## Result 14.7

---

Experiment: Pharmacokinetic study, oral, serum LC-MS
Assay type: in vivo, SD rats
Conditions: male, Sprague-Dawley (SD), rat, serum; free drug coarse suspension, 25 mg/kg oral
measured-attribute: Cmax (ng/mL)
Record the value in ng/mL, omitting the unit from your answer.

## Task For COc1ccc(C(=O)C2=C3OC(C)(C)[C@@H](CC=C(C)C)C[C@@]34C[C@@H](CC=C(C)C)C(C)(C)[C@@](CC=C(C)C)(C2=O)C4=O)cc1OC , what is its reported Cmax?
## Result 0.853

---

Assay: Pharmacokinetic study, oral, serum LC-MS
Type: in vivo, SD rats
Conditions: male, Sprague-Dawley (SD), rat, serum; free drug coarse suspension, 100 mg/kg oral
measured-attribute: Cmax (ng/mL)
Unit ng/mL implied. Number only.

## Task What does the record list as Cmax for COc1ccc(C(=O)C2=C3OC(C)(C)[C@@H](CC=C(C)C)C[C@@]34C[C@@H](CC=C(C)C)C(C)(C)[C@@](CC=C(C)C)(C2=O)C4=O)cc1OC ?
## Result 0.343

---

Test: Pharmacokinetic study, oral, serum LC-MS
Assay type: in vivo, SD rats
Conditions: male, Sprague-Dawley (SD), rat, serum; free drug coarse suspension, 50 mg/kg oral; read-out: MRT 0-inf_obs
measured-attribute: MRT inf (h)
Could you give me the number in h? Just the number is fine.

## Task Requested read-out: MRT inf. Entry: COc1ccc(C(=O)C2=C3OC(C)(C)[C@@H](CC=C(C)C)C[C@@]34C[C@@H](CC=C(C)C)C(C)(C)[C@@](CC=C(C)C)(C2=O)C4=O)cc1OC
## Result 28.4

---

Assay: Pharmacokinetic study, oral, serum LC-MS
Type: in vivo, SD rats
Settings: male, Sprague-Dawley (SD), rat, serum; free drug coarse suspension, 50 mg/kg oral; read-out: AUC 0-inf_obs
measured-attribute: AUC(0-inf) (ng·h/mL)
Write the value in ng·h/mL as a bare number.

## Task Entry COc1ccc(C(=O)C2=C3OC(C)(C)[C@@H](CC=C(C)C)C[C@@]34C[C@@H](CC=C(C)C)C(C)(C)[C@@](CC=C(C)C)(C2=O)C4=O)cc1OC : reported AUC(0-inf) = ?
## Result 6.49
